Cited source for all entries: patent US9388419B2

Test system: E. coli
Format: cell-based, Escherichia coli
CONDITIONS_USED: strain BW25113, M9 media with the named supplement(s), aerobic; MIC of 3-HP versus M9 control without supplement
Listing of recorded % Increase Over Control by entry.

N[C@@H](Cc1ccccc1)C(=O)O [Phenylalanine (A)]	17%
NC(=O)NCCC[C@H](N)C(=O)O [Citrulline (C)]	9%
NCCCC[C@H](N)C(=O)O [Lysine (D)]	33%
Nc1nc(=O)c2c([nH]1)NC[C@@H](CNc1ccc(C(=O)N[C@@H](CCC(=O)O)C(=O)O)cc1)N2 [Tetrahydrofolate (A)]	9%
Nc1ccc(C(=O)O)cc1 [p-aminobenzoate (A)]	27%
O=C(O)O [Bicarbonate (C)]	59%

Entry CC[C@H](C)[C@H](N)C(=O)O [Isoleucine (B)] : % Increase Over Control on E. coli = 17%

Entry NCCC[C@H](N)C(=O)O [Ornithine(C)] : % Increase Over Control on E. coli = 9%

Entry NC(CCS)C(=O)O (stereo not drawn) [Homocysteine (B)] : % Increase Over Control on E. coli = 9%

----------
PROCEDURE_SUMMARY: Reactive extraction of 3-HP from fermentation broth with tertiary amine and co-solvents, single pass extraction efficiency
Assay type: physicochemical
CONDITIONS_USED: Tripentylamine with Methyl ethyl ketone (4)
PARAMETER_MEASURED: % 3-HP raffinate

O=C(O)CCO [3-HP, 3-hydroxypropionic acid] has a reported % 3-HP raffinate of 33%

----------
PROCEDURE_SUMMARY: Reactive extraction of 3-HP from fermentation broth with tertiary amine and co-solvents, single pass extraction efficiency
Assay type: physicochemical
CONDITIONS_USED: Tripentylamine with Methyl ethyl ketone (4)
PARAMETER_MEASURED: % 3-HP extracted
Don't forget the unit after the number, please.

O=C(O)CCO [3-HP, 3-hydroxypropionic acid] has a reported % 3-HP extracted of 67%

----------
PROCEDURE_SUMMARY: Reactive extraction of 3-HP from fermentation broth with tertiary amine and co-solvents, single pass extraction efficiency
Format: physicochemical
CONDITIONS_USED: Tripentylamine with Methyl tert-butyl ether (5)
PARAMETER_MEASURED: % 3-HP raffinate (%)
# output: bare number, implied unit %

O=C(O)CCO [3-HP, 3-hydroxypropionic acid] has a reported % 3-HP raffinate of 62

----------
PROCEDURE_SUMMARY: Reactive extraction of 3-HP from fermentation broth with tertiary amine and co-solvents, single pass extraction efficiency
Format: physicochemical
CONDITIONS_USED: Tripentylamine with Methyl tert-butyl ether (5)
PARAMETER_MEASURED: % 3-HP extracted
Don't forget the unit after the number, please.

O=C(O)CCO [3-HP, 3-hydroxypropionic acid] has a reported % 3-HP extracted of 38%

----------
PROCEDURE_SUMMARY: Reactive extraction of 3-HP from fermentation broth with tertiary amine and co-solvents, single pass extraction efficiency
Type: physicochemical
CONDITIONS_USED: Tripentylamine with Butanol (2)
PARAMETER_MEASURED: % 3-HP raffinate (%)
# output: bare number, implied unit %

O=C(O)CCO [3-HP, 3-hydroxypropionic acid] has a reported % 3-HP raffinate of 42

----------
Test system: B. subtilis
PROCEDURE_SUMMARY: MIC protocol B. subtilis aerobic (Common Methods, M9 media + glutamate, 24 hours)
Assay type: cell-based, Bacillus subtilis
CONDITIONS_USED: B. subtilis 168 in M9 + glu + trp with the named supplement(s), 3HP tolerance
PARAMETER_MEASURED: Avg 24 hr ΔOD600
# print the numeric value only

# count of solved cases: 3
O=C(O)CC(O)(CC(=O)O)C(=O)O [Citrate]	0.30
CSCC[C@H](N)C(=O)O [Methionine]	0.15
O=C([O-])O.[Na+] [sodium bicarbonate]	0.06

Nc1ccc(C(=O)O)cc1 [p-aminobenzoic acid] has a reported Avg 24 hr ΔOD600 of 0.07

----------
Test system: E. coli Mach1-T1
PROCEDURE_SUMMARY: Minimum inhibitory concentration (MIC) of 3-HP, microaerobic, 96 well-plate, MOPS minimal media
Type: cell-based, Escherichia coli
CONDITIONS_USED: E. coli Mach1-T1, MOPS minimal media with the supplement at its optimal concentration vs unsupplemented, microaerobic, 24 hours
PARAMETER_MEASURED: MIC increase (3-HP) resulting from supplementation (%)
# output: bare number, implied unit %

Cl.NC1CCSC1=O (centres unmarked) [homocysteine thiolactone hydrochloride]	60
N[C@@H](CCO)C(=O)O	33
Cc1ncc(CO)c(CO)c1O.Cl [pyridoxine hydrochloride]	0
Nc1ccc(C(=O)O)cc1	7
N[C@@H](Cc1c[nH]c2ccccc12)C(=O)O	33
CCC(=O)C(=O)O [oxobutanoate]	7
O=C(O)c1cccc(O)c1O [2,3-didyroxybenzoic acid, 2,3-dihydroxybenzoic acid]	33
N[C@@H](Cc1ccccc1)C(=O)O	33
C[C@@H](O)[C@H](N)C(=O)O	3
N[C@@H](Cc1ccc(O)cc1)C(=O)O	40

Moving on to the next compound.
NNC(=O)c1ccc(O)cc1 [p-hydroxybenzoic acid hydrazide] has a reported MIC increase (3-HP) resulting from supplementation of 33

----------
PROCEDURE_SUMMARY: Reactive extraction of 3-HP from fermentation broth with tertiary amine and co-solvents, single pass extraction efficiency
Assay type: physicochemical
CONDITIONS_USED: Alamine 336 with Butanol (1)
PARAMETER_MEASURED: % 3-HP extracted (%)
# output: bare number, implied unit %

O=C(O)CCO [3-HP, 3-hydroxypropionic acid] has a reported % 3-HP extracted of 61

----------
System: Yeast strains (S288C background)
Type: cell-based, Saccharomyces cerevisiae
CONDITIONS_USED: MIC of 3-HP for yeast S288C in SD media with the named supplement(s), aerobic
PARAMETER_MEASURED: Average MIC Assay Result (g/L 3-HP) (g/L)
# output: bare number, implied unit g/L

Entry CCC(=O)C(=O)O [2-oxobutyrate (B)] : Average MIC Assay Result (g/L 3-HP) on Yeast strains (S288C background) = 50

Entry O=C(O)C1=C[C@@H](O)[C@@H](O)[C@H](O)C1 [Shikimate (A)] : Average MIC Assay Result (g/L 3-HP) on Yeast strains (S288C background) = 80

Entry NC(=O)NCCC[C@H](N)C(=O)O [Citrulline (C)] : Average MIC Assay Result (g/L 3-HP) on Yeast strains (S288C background) = 58

Entry NCC(=O)O [Glycine (B)] : Average MIC Assay Result (g/L 3-HP) on Yeast strains (S288C background) = 50

----------
PROCEDURE_SUMMARY: Reactive extraction of 3-HP from fermentation broth with tertiary amine and co-solvents, single pass extraction efficiency
Format: physicochemical
CONDITIONS_USED: Tripentylamine with p-Xylene (3)
PARAMETER_MEASURED: % 3-HP raffinate (%)
# output: bare number, implied unit %

O=C(O)CCO [3-HP, 3-hydroxypropionic acid] has a reported % 3-HP raffinate of 76

----------
Listing of recorded % Increase Over Control by entry.
System: Yeast strains (S288C background)
Type: cell-based, Saccharomyces cerevisiae
CONDITIONS_USED: increase of 3-HP MIC over S288C in SD without supplement, aerobic
# output: bare number, implied unit %

# count of solved cases: 4
N[C@@H](CC(=O)O)C(=O)O [Aspartate]	26
NC(=O)NCCC[C@H](N)C(=O)O	28
O=C(O)C1=C[C@@H](O)[C@@H](O)[C@H](O)C1 [Shikimate (A)]	78
CCC(=O)C(=O)O [2-oxobutyrate (B)]	11

NCC(=O)O has a reported % Increase Over Control of 11

N[C@@H](Cc1c[nH]c2ccccc12)C(=O)O has a reported % Increase Over Control of 20

----------
PROCEDURE_SUMMARY: Reactive extraction of 3-HP from fermentation broth with tertiary amine and co-solvents, single pass extraction efficiency
Format: physicochemical
CONDITIONS_USED: Alamine 336 with Butanol (1)
PARAMETER_MEASURED: % 3-HP raffinate (%)
# output: bare number, implied unit %

O=C(O)CCO [3-HP, 3-hydroxypropionic acid] has a reported % 3-HP raffinate of 39

----------
System: E. coli
Format: cell-based, Escherichia coli
CONDITIONS_USED: strain BW25113, M9 media with the named supplement(s), aerobic; MIC of 3-HP versus M9 control without supplement
Listing of recorded % Increase Over Control by entry.
# output: bare number, implied unit %

O=C(O)C1=C[C@@H](O)[C@@H](O)[C@H](O)C1 [Shikimate (A)]	3

NC(=O)CC[C@H](N)C(=O)O has a reported % Increase Over Control of 9

N[C@@H](CO)C(=O)O has a reported % Increase Over Control of 17
